Quick list: pKd per entry.
- target.under.test: HPPD SEQ ID NO:15 (Avena sativa, UniProt A0ACD5V6K6, DEL109-109/Q298A)
- Sequence (A0ACD5V6K6 entry or part of it DEL109-109/Q298A): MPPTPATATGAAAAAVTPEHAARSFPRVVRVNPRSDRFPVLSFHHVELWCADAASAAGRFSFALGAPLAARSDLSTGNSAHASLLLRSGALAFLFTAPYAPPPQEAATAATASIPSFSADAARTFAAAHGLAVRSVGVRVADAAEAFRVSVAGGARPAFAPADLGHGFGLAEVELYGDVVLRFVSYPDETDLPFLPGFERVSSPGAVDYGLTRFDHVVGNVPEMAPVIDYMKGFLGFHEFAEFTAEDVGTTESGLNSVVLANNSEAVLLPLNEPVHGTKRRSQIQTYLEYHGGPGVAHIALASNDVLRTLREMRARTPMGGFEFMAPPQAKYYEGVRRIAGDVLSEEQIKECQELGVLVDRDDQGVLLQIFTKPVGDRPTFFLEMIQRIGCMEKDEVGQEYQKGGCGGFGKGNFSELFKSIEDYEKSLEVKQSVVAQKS
- protocol: biochemical
Please treat pKd as minus the base-10 logarithm of the molar concentration.

# compound, pKd
rows = [
    ("COCCOCc1nc(C(F)(F)F)ccc1C(=O)C1C(=O)C2CCC(C2)C1=O (centres unmarked) [Structure C]", 7.75),
]

Request: What pKd appears in the records for this compound with HPPD SEQ ID NO:15 (Avena sativa, UniProt A0ACD5V6K6, DEL109-109/Q298A)? CCOc1c(S(C)(=O)=O)ccc(C(=O)C2C(=O)CC(C)CC2=O)c1Cl (centres unmarked) [Structure A]
Response: 9.02
